Listed here are molecules together with their documented logP.

Recorded results for 3 molecules are shown here.
| Molecular String | logP |
| --- | --- |
| Oc1ccc(C(c2ccncc2)c2ccc(O)cc2)cc1 | 3.24 |
| Cc1cnc(Cc2ccc(O)cc2)s1 | 2.62 |
| Nc1ccccc1C(c1ccc(O)cc1)c1ccc(O)cc1 | 3.16 |

q: Quick one: give measured logP for Oc1ccc(C(c2ccc(O)cc2)c2nccs2)cc1
a: 2.96

q: Quick one: give measured logP for O=C(O)c1ccccc1C(c1ccc(O)cc1)c1ccc(O)cc1
a: 2.61

q: Quick one: give measured logP for Oc1ccc(C(c2ccc(O)cc2)c2ccccn2)cc1
a: 2.84

q: Quick one: give measured logP for Oc1ccc(Cc2ccc(O)cc2)cc1
a: 2.91
